Biological target: Carbonic anhydrase 1 (Homo sapiens, UniProt P00915)
Sequence (P00915 whole entry): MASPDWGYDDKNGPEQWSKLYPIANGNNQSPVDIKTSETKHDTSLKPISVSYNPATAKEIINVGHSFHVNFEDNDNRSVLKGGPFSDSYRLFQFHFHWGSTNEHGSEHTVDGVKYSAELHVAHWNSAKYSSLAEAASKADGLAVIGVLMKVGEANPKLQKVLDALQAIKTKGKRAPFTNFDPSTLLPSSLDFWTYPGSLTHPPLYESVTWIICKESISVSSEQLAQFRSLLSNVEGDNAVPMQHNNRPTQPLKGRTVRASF
Assay: Inhibition of human carbonic anhydrase 1 after 15 mins by stopped flow CO2 hydration assay
Experimental Readout: pKi
The value called pKi is obtained by taking minus log10 of the concentration in mol/L.

Q) So what does the record say about pKi for O=S(=O)(O)ONOS(=O)(=O)O [SODIUM IMINODISULFATE] ?
A) 6.51

----------
Biological target: Carbonic anhydrase 2 (Homo sapiens, UniProt P00918)
Experimental Readout: pKi
Here pKi is given on a logarithmic scale as minus log10 of the concentration in mol/L.

Q) Look up pKi: O=S(=O)(O)ONOS(=O)(=O)O [SODIUM IMINODISULFATE]
A) 6.12
